Please go through the items and note down their EC50.
tested-on: human GPCR sphingosine 1-phosphate receptor 1 (Homo sapiens)
Construct: host or cells: CHO
Sequence (P21453 whole entry): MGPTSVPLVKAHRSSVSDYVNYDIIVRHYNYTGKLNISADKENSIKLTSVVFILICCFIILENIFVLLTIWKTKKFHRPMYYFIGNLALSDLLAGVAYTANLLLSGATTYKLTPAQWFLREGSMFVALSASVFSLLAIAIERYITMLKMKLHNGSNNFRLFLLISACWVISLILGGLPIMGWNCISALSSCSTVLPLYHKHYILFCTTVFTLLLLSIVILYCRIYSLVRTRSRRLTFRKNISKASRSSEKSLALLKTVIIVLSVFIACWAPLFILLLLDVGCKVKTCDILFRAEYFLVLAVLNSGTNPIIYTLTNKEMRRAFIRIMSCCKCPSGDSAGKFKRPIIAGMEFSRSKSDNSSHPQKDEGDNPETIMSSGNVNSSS
measurement-description: S1PR1 selectivity Ca2+ flux assay (antagonist readout)
Type: cell-based
reported-conditions: antagonist readout, CHO cells overexpressing human S1PR1 and Gq, S1P at EC80 (6 nM); read-out: S1P1 EC50 (nM), S1P1 antagonist EC50
Description: 50 μL of Chinese hamster ovary (CHO) cells stably overexpressing human S1PR1 or S1PR5 are seeded in 384 well sterile microplates (7,500 cells/well or 10,000 cells/well respectively) and are incubated overnight at 37° C. under 5% CO2. […] 10 μL of diluted compound is added to the cells using the FDSS/pCELL and intracellular calcium changes are measured immediately by recording fluorescence during 3 min (agonist readout). […]

Report EC50 for CN(C)C1CCN(C(=O)Cn2nc(Cc3nc4cc(C#N)c(OCC(F)F)cc4[nH]3)c3c(c2=O)CCCC3)C1 (stereo not shown) [Compound 204] please.
≥ 19800 nM

Thanks! And O=C(Cn1nc(Cc2cc3cc(Cl)c(OCC(F)F)cc3[nH]2)c2ccccc2c1=O)N1CCOCC1 [compound 11] ?
≥ 19800 nM

// batch mode: one EC50 value per listed entry
1. O=C(O)Cn1nc(Cn2cc3cc(OCC(F)F)c(Cl)cc3n2)c2ccccc2c1=O [Compound 253]
2. O=C(Cn1nc(Cc2nc3cc(OCC(F)F)c(Cl)cc3[nH]2)c2c(F)ccc(F)c2c1=O)N1CCOCC1 [Compound 152]

≥ 19900 nM
≥ 19800 nM

###

Kindly supply the reported log10 EC50 values for the records listed here.
tested-on: human GPCR sphingosine 1-phosphate receptor 2 (Homo sapiens, UniProt O95136)
Construct: host or cells: CHO
Sequence (O95136 whole entry): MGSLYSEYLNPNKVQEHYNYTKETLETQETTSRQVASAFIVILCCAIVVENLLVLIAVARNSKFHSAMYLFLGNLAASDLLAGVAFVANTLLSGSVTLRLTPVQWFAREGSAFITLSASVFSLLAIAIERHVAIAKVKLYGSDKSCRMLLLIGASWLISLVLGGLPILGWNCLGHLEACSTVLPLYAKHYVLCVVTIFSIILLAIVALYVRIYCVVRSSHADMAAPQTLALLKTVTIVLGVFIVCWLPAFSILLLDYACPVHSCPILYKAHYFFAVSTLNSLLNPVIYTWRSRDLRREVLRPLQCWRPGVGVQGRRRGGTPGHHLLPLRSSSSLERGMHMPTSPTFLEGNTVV
measurement-description: S1PR2 antagonist Ca2+ flux assay
Assay type: cell-based
reported-conditions: antagonist mode, CHO-S1PR2 cells, S1P at EC80, Ca2+ fluorescence; read-out: S1P2 EC50 (nM), S1P2 antagonist EC50
Quick note: numbers are log10 of EC50, with nM as the unit.

Here is how some compounds turned out for log10 EC50.
Name the reported log10 EC50 value associated with the compound CC(C)(O)C1CCCN(C(=O)Cn2nc(Cc3nc4cc(OCC(F)F)c(C#N)cc4[nH]3)c3ccccc3c2=O)C1 (stereo not shown) [Compound 237]
1.75

Would you kindly repeat that for CC1(COc2cc3[nH]c(Cc4nn(CC(=O)N5CCOCC5)c(=O)c5ccccc45)nc3cc2Cl)CC1 [Compound 163] ?
1.06

Ok, now CS(=O)(=O)NC(=O)Cn1nc(Cc2nc3cc(OCC4CC4)c(Cl)cc3[nH]2)c2ccccc2c1=O [Compound 242]
1.28

Try this compound next: O=c1c2ccccc2c(Cc2nc3cc(Cl)c(OC(F)(F)F)cc3[nH]2)nn1C1CCNCC1 [Compound 62]
2.99

Please do the same for N#Cc1cc2nn(Cc3nn(CC(=O)NC4CCCC4)c(=O)c4ccccc34)cc2cc1OCC(F)F [Compound 208] as well.
4.03

List the reported log10 EC50 of each compound below.
1. O=C(O)Cc1nn(Cc2cc3cc(Cl)c(OCC4CC4)cc3[nH]2)c2ccccc2c1=O [compound 16]
2. N#Cc1cc2[nH]c(Cc3nn(CC(=O)NC4CCCOC4)c(=O)c4ccccc34)nc2cc1OCC(F)F (stereo not shown) [Compound 184]
3. CC1(C)CN(C(=O)Cn2nc(Cc3nc4cc(OCC(F)F)c(C#N)cc4[nH]3)c3ccccc3c2=O)CCO1 [Compound 227]
4. COCCOc1cc2nc(Cc3nn(CC(=O)N4CCOCC4)c(=O)c4ccccc34)[nH]c2cc1C#N [Compound 51]

0.66
1.40
1.16
1.89

###

tested-on: S1PR2 (Homo sapiens)
Construct: expressed in transfected cells
measurement-description: S1PR2 binding assay (competition with radioactively labeled S1P, SpA)
reported-conditions: membranes from stable cell line over expressing S1PR2, SpA beads; read-out: S1P2 EC50 (nM), S1PR2 binding EC50
Experimental: The following assay can be used for determination of S1PR2 binding. The binding assay measures the potential to compete with radioactively labeled S1P for binding to the receptor. The assay is performed in a96 well plate where the following reagents are added. […] Plates are read on a Topcount reader (Perkin Elmer) immediately after centrifugation (readout time, 1 min/well).
outcome-measure: log10(EC50) (log10 of the value in nM)
Scale: decimal log of EC50, EC50 in nM.

Report log10(EC50) for N#Cc1cc2[nH]c(Cn3nc(CC(=O)O)c(=O)c4ccccc43)nc2cc1OCC1CC1 [Compound 108] please.
0.96

Same question for CN(C)C(=O)C1CCN(C(=O)Cn2nc(Cc3nc4cc(OCC(F)F)c(C#N)cc4[nH]3)c3ccccc3c2=O)CC1 [Compound 236] please.
3.32

Same read-out for N#Cc1cc2[nH]c(Cc3nn(CC(=O)N4CCOCC4)c(=O)c4ccccc34)nc2cc1OCC1CC1 [Compound 158] ?
1.27

// next record CC(F)(F)COc1cc2nc(Cc3nn(CC(=O)N4CCOCC4)c(=O)c4ccccc34)[nH]c2cc1C#N [Compound 52]
2.02

Next record, please: N#Cc1cc2[nH]c(Cc3nn(CC4CCCN4)c(=O)c4ccccc34)nc2cc1OCC(F)F (centres unmarked) [compound 1]
3.59

I need log10(EC50) for every entry listed below, if you could help.
1. O=C(Cc1nn(Cc2nc3cc(OCC4CC4)c(Br)cc3[nH]2)c2ccccc2c1=O)N1C[C@H](O)[C@@H](O)C1 [Compound 217]
2. CCOc1cc2nc(Cc3nn(CC(=O)O)c(=O)c4ccccc34)[nH]c2cc1F [Compound 129]
3. N#Cc1cc2nn(Cc3nn(CC(=O)N4CCOCC4)c(=O)c4ccccc34)cc2cc1OCC(F)F [Compound 205]

1: 0.41; 2: 3.14; 3: 3.89

Please state, for each entry, its recorded log10(EC50).
1. N#Cc1ccc2c(Cc3nc4cc(Cl)c(OCC(F)F)cc4[nH]3)nn(CC(=O)N3CCOCC3)c(=O)c2c1 [Compound 40]
2. CCOc1cc2nc(Cc3nn(CC(=O)NS(C)(=O)=O)c(=O)c4ccccc34)[nH]c2cc1F [Compound 247]
3. N#Cc1cc2nn(Cc3nn(CC(=O)O)c(=O)c4ccccc34)cc2cc1OCC(F)F [compound 8]
4. O=C(Cn1nc(Cn2cc3cc(OCC4CC4)c(Cl)cc3n2)c2ccccc2c1=O)NS(=O)(=O)C1CC1 [Compound 244]
5. C[C@@H]1CN(C(=O)Cn2nc(Cc3nc4cc(OCC(F)F)c(C#N)cc4[nH]3)c3ccccc3c2=O)C[C@H](C)O1 [Compound 177]

[2.42, 3.39, 3.40, 2.13, 2.09]

###

tested-on: human GPCR sphingosine 1-phosphate receptor 2 (Homo sapiens)
Construct: host or cells: CHO
measurement-description: S1PR2 antagonist Ca2+ flux assay
Assay type: cell-based
reported-conditions: antagonist mode, CHO-S1PR2 cells, S1P at EC80, Ca2+ fluorescence; read-out: S1P2 EC50 (nM), S1P2 antagonist EC50
Kindly supply the reported log10 EC50 values for the records listed here.
// stored as log10 of EC50 expressed in nM

Completed entries (count: 5):
Give recorded log10 EC50 with human GPCR sphingosine 1-phosphate receptor 2 (Homo sapiens) for the following compound: N#Cc1cc2[nH]c(Cn3nc(CC(=O)N4C[C@H](O)[C@@H](O)C4)c(=O)c4ccccc43)nc2cc1OCC1CC1
0.66

Param item: N#Cc1cc2[nH]c(Cc3nn(CC(=O)N4CC5(CCOCC5)C4)c(=O)c4ccccc34)nc2cc1OCC(F)F
2.89

How about this compound: N#Cc1cc2nc(Cc3nn(C4CC4)c(=O)c4ccccc34)[nH]c2cc1OCC1CC1
1.29

Same read-out for O=C(Cc1nn(Cc2nc3cc(OCC4CC4)c(Br)cc3[nH]2)c2ccccc2c1=O)N1C[C@H](O)[C@@H](O)C1 ?
0.35

Query N#Cc1cc2[nH]c(Cc3nn(CC(=O)N4CCCC(O)C4)c(=O)c4ccccc34)nc2cc1OCC(F)F (stereo not shown) next
1.89

Would you mind listing log10 EC50 for each of the following compounds?
1. CC(C(=O)O)n1nc(Cc2cn3cc(OCC4CC4)c(C#N)cc3n2)c2ccccc2c1=O (stereo not shown)
2. O=C(O)Cn1nc(Cc2nc3cc(Cl)c(OCC(F)F)cc3[nH]2)c2c(c1=O)CCCC2

1: 1.35; 2: 0.82

###

I'd be grateful if you could share measured log10 of EC50 for these entries.
tested-on: S1PR2 (Homo sapiens, UniProt O95136)
Construct: expressed in transfected cells
measurement-description: S1PR2 binding assay (competition with radioactively labeled S1P, SpA)
reported-conditions: membranes from stable cell line over expressing S1PR2, SpA beads; read-out: S1P2 EC50 (nM), S1PR2 binding EC50
For clarity, the numbers are log10 values of EC50 expressed in nM.

See these solved cases before continuing.
Need log10 of EC50, item CC(C)(C)NC(=O)Cn1nc(Cc2nc3cc(Cl)c(OC(F)(F)F)cc3[nH]2)c2c(c1=O)CCCC2
3.04

How about O=C(O)Cc1nn(Cc2nc3cc(OCC(F)F)c(Cl)cc3[nH]2)c2ccccc2c1=O ?
1.75

And N#Cc1cc2[nH]c(Cc3nn(C4CCNC4)c(=O)c4ccccc34)nc2cc1OCC(F)F (centres unmarked) ?
2.12

// same read-out, input: N#Cc1cc2[nH]c(Cc3nn(C4CN(CC(=O)O)C4)c(=O)c4ccccc34)nc2cc1OCC(F)F
2.43

Input O=C(O)Cn1nc(Cc2nc3cc(Cl)c(OCC(F)F)cc3[nH]2)c2c(c1=O)CCCC2
1.37

Could you tell me log10 of EC50 for each of these compounds? They are listed below.
1. N#Cc1cc2nc(Cc3nn(CC(=O)N4CCC(O)CC4)c(=O)c4ccccc34)[nH]c2cc1OCC(F)F
2. CC1(COc2cc3nc(Cc4nn(CC(=O)O)c(=O)c5ccccc45)[nH]c3cc2Cl)CC1
3. O=C(O)Cc1nn(Cc2cc3cc(Cl)c(OCC4CC4)cc3[nH]2)c2ccccc2c1=O

[2.54, 2.29, 1.48]
